# System: CAKI-1
# EXPERIMENT: NCI tumour cell line growth inhibition, 48 h
Activity calls are given as the source filed them. No stated cut-off is given here; in the data, active = GI50 up to about 1.1 µM and inactive = higher. Non-standard residues stand in square brackets, D forms with d. Residues, ends and D or L forms follow the SMILES beside them. *: point of attachment. Phe(4-NO2) = N[CH](Cc1ccc([N+](=O)[O-])cc1)C(=O)O; Boc = CC(C)(C)OC(=O)*
Outcomes: 1 = active, -1 = inactive

{"COMPOUND": "COc1nc2c(nc(N)n2C2OC(CO)C(O)C(O)C2O)c(=O)[nH]1 (stereo not given)", "LABEL_CLASS": -1}
{"COMPOUND": "CC1=C/C(=C2/N=C(N(C)C)SS2)C(C)=N1.[O-][Cl+3]([O-])([O-])O", "LABEL_CLASS": -1}
{"COMPOUND": "C1=C2C3=[N+](CCCC3)CC2Cc2sccc21 (stereo not given)", "LABEL_CLASS": -1}
{"COMPOUND": "CCN(CC)CCC(=O)/C=C/c1ccc(C)cc1", "LABEL_CLASS": -1}
{"COMPOUND": "CC(=O)NNc1nc(C)c(C(=O)NNC(=O)C(=O)Nc2nc3ccc([N+](=O)[O-])cc3s2)s1", "LABEL_CLASS": -1}
{"COMPOUND": "C=Cn1c([N+](=O)[O-])cnc1/C=C/c1ccc(C(=O)OCCN2CCOCC2)cc1", "LABEL_CLASS": -1}
{"COMPOUND": "Cc1cc(O)nc2cc3oc4ccccc4c3cc12", "LABEL_CLASS": -1}
{"COMPOUND": "COC(=O)/C=C/c1ccc2c(c1)CC1(C2)Cc2cc3c(cc2C1=O)CCC3 (stereo not given)", "LABEL_CLASS": -1}
{"COMPOUND": "N#Cc1ccc(/C=N\\N2C(=O)c3ccccc3C2=O)cc1", "LABEL_CLASS": -1}
{"COMPOUND": "Cc1ccc2c(c1)-c1nc(N)c(C#N)c(-c3ccccc3)c1CCS2(=O)=O", "LABEL_CLASS": -1}
{"COMPOUND": "CC(=O)Oc1c2c(c(CC=C(C)C)c3c1C(=O)C1=C[C@@H]4CC5C(C)(C)OC(C/C=C(/C)C(=O)O)(C4=O)[C@@]15O3)OC(C)(CCC=C(C)C)C=C2 (stereo not given in full)", "LABEL_CLASS": 1}
{"COMPOUND": "O=c1[nH]nc(-c2ccccc2)n1/N=C\\CC/C=N\\n1c(-c2ccccc2)n[nH]c1=O", "LABEL_CLASS": -1}
{"COMPOUND": "O=C(CN(c1ccccc1)c1ccccc1)n1nnc2ccccc21", "LABEL_CLASS": -1}
{"COMPOUND": "O=C1/C(=C/Cc2ccco2)N=C(c2ccccc2)N1c1nc2ccc(Sc3ccccc3)cc2[nH]1", "LABEL_CLASS": -1}
{"COMPOUND": "CC(C)(C)OC(=O)NCCCCC(NC(=O)c1ccccc1)C(N)=O (stereo not given)", "LABEL_CLASS": -1}
{"COMPOUND": "Cc1ccc(/C=C2\\CCCC(CN3CCCCC3)C2=O)cc1 (stereo not given)", "LABEL_CLASS": -1}
{"COMPOUND": "N=C(N)NS(=O)(=O)c1ccc(Nc2c3ccccc3nc3c(C(=O)N4CCN(CCO)CC4)ccc(Cl)c23)cc1", "LABEL_CLASS": -1}
{"COMPOUND": "Cc1ccc(C(=O)C2CC3(CCC2(O)c2ccc(C)cc2)CC(=O)Nc2ccccc2C3=O)cc1 (stereo not given)", "LABEL_CLASS": -1}
{"COMPOUND": "CCN1CCN=c2c3cc(OC)ccc3n3cnc4ccc1c2c43", "LABEL_CLASS": 1}
{"COMPOUND": "COC(=O)CCC(NC(=O)OC(C)(C)C)C(=O)NC(Cc1ccc([N+](=O)[O-])cc1)C(=O)NC(CCC(=O)OC)C(=O)OC (stereo not given) (Boc-Glu(OMe)-[Phe(4-NO2)]-Glu(OMe)-OMe; configuration not given here)", "LABEL_CLASS": -1}
{"COMPOUND": "Cc1ccc(C(=O)N/N=C(\\N=N\\c2cccc(Cl)c2)c2ccc(N(CCC#N)CCC#N)cc2C)cc1", "LABEL_CLASS": -1}
{"COMPOUND": "COc1ccc(C#CC(=O)O)c(OC)c1", "LABEL_CLASS": -1}
{"COMPOUND": "CCOP(=O)(OCC)[C@]12C[C@@H](C)C=C[C@H]1COC2=O", "LABEL_CLASS": -1}
{"COMPOUND": "N#CCCN(CCC#N)CCN(CCN(CCC#N)CCC#N)CCN(CCC#N)CCC#N", "LABEL_CLASS": -1}
{"COMPOUND": "CCCCCc1nnc(NS(=O)(=O)c2ccc(NC(=O)OCC(C)C)cc2)s1", "LABEL_CLASS": -1}
{"COMPOUND": "N#CC(C#N)=Cc1c[nH]c(=O)[nH]c1=O", "LABEL_CLASS": -1}
{"COMPOUND": "Nc1nc(O)nc2snnc12", "LABEL_CLASS": -1}
{"COMPOUND": "FC(F)(F)c1ccc2c(c1)nc(Cc1ccccc1)n2C[C@@H]1CCCN2CCCCC12 (stereo not given in full)", "LABEL_CLASS": -1}
{"COMPOUND": "c1ccc(CSC(SCc2ccccc2)c2ccc3c(c2)OCO3)cc1", "LABEL_CLASS": -1}
{"COMPOUND": "COC(=O)C(CCCCCCCC(C(=O)OC)C1=Nc2nnc(N)n2C1=O)C1=Nc2nnc(N)n2C1=O (stereo not given)", "LABEL_CLASS": -1}
{"COMPOUND": "CCCN(CCC)C(=S)Sc1nc(C)nc(N2CCN(c3nc(C)nc(SC(=S)N(CCC)CCC)c3[N+](=O)[O-])CC2)c1[N+](=O)[O-]", "LABEL_CLASS": -1}
{"COMPOUND": "CCCN(CCC)C(=O)Cc1c2n(c3ccccc13)CCCc1ccccc1-2", "LABEL_CLASS": -1}
{"COMPOUND": "COc1cc2c(cc1O)[C@H](C)C(c1ccccc1OC)O2 (stereo not given in full)", "LABEL_CLASS": -1}
{"COMPOUND": "O=c1[nH]/c(=C/c2ccc(OCc3ccccc3)cn2)c(=O)[nH]/c1=C/c1ccc(O)cc1", "LABEL_CLASS": 1}
{"COMPOUND": "COc1ccc(/C=C2/CCS(=O)(=O)c3ccc(C)cc3C2=O)cc1OC", "LABEL_CLASS": -1}
{"COMPOUND": "CCN1/C(=C/c2ccc3ccccc3[n+]2CC)C=Cc2ccccc21", "LABEL_CLASS": -1}
{"COMPOUND": "CC(=O)NC(CCCNC(=O)NCCCl)C(=O)NCc1ccccc1 (stereo not given)", "LABEL_CLASS": -1}
{"COMPOUND": "O=C(O)C1C2C=CC(C2)C1c1ccccc1 (stereo not given)", "LABEL_CLASS": -1}
{"COMPOUND": "O=C1NCCCc2nonc21", "LABEL_CLASS": -1}
{"COMPOUND": "C(=N\\c1nc2cc3sc(/N=C/c4ccccc4)nc3cc2s1)/c1ccccc1", "LABEL_CLASS": -1}
